Data origin, for the record: BigSolDB 2.1

cond: in 1,4-dioxane, 308.15 K
assay_metric: solubility (mole fraction)
Give the figure by itself; no unit, no explanation.

solubility (mole fraction) reported for this compound CS(=O)(=O)c1ccc([C@@H](O)[C@@H](CO)NC(=O)C(Cl)Cl)cc1 : 0.0013

====

cond: in acetone, 283.15 K
assay_metric: solubility (mole fraction)
Give the figure by itself; no unit, no explanation.

solubility (mole fraction) reported for this compound CS(=O)(=O)c1ccc([C@@H](O)[C@@H](CO)NC(=O)C(Cl)Cl)cc1 : 0.000425

====

cond: in ethanol, 303.15 K
assay_metric: solubility (mole fraction)
Give the figure by itself; no unit, no explanation.

solubility (mole fraction) reported for this compound CS(=O)(=O)c1ccc([C@@H](O)[C@@H](CO)NC(=O)C(Cl)Cl)cc1 : 0.000625

====

cond: in 2-butanone, 293.15 K
assay_metric: solubility (mole fraction)
Give the figure by itself; no unit, no explanation.

solubility (mole fraction) reported for this molecule CS(=O)(=O)c1ccc([C@@H](O)[C@@H](CO)NC(=O)C(Cl)Cl)cc1 : 0.000379

====

cond: in n-propanol, 318.15 K
assay_metric: solubility (mole fraction)
Give the figure by itself; no unit, no explanation.

solubility (mole fraction) reported for this compound CS(=O)(=O)c1ccc([C@@H](O)[C@@H](CO)NC(=O)C(Cl)Cl)cc1 : 0.000687

====

cond: in ethyl acetate, 313.15 K
assay_metric: solubility (mole fraction)
Give the figure by itself; no unit, no explanation.

solubility (mole fraction) reported for this compound CS(=O)(=O)c1ccc([C@@H](O)[C@@H](CO)NC(=O)C(Cl)Cl)cc1 : 0.000643

====

cond: in acetone, 288.15 K
assay_metric: solubility (mole fraction)
Give the figure by itself; no unit, no explanation.

solubility (mole fraction) reported for this molecule CS(=O)(=O)c1ccc([C@@H](O)[C@@H](CO)NC(=O)C(Cl)Cl)cc1 : 0.000585

====

cond: in toluene, 313.15 K
assay_metric: solubility (mole fraction)
Give the figure by itself; no unit, no explanation.

solubility (mole fraction) reported for this compound CS(=O)(=O)c1ccc([C@@H](O)[C@@H](CO)NC(=O)C(Cl)Cl)cc1 : 5.53e-05

====

cond: in acetone, 318.15 K
assay_metric: solubility (mole fraction)
Give the figure by itself; no unit, no explanation.

solubility (mole fraction) reported for this compound CS(=O)(=O)c1ccc([C@@H](O)[C@@H](CO)NC(=O)C(Cl)Cl)cc1 : 0.00352

====

cond: in toluene, 318.15 K
assay_metric: solubility (mole fraction)
Give the figure by itself; no unit, no explanation.

solubility (mole fraction) reported for this molecule CS(=O)(=O)c1ccc([C@@H](O)[C@@H](CO)NC(=O)C(Cl)Cl)cc1 : 7.6e-05

====

cond: in n-butanol, 298.15 K
assay_metric: solubility (mole fraction)
Give the figure by itself; no unit, no explanation.

solubility (mole fraction) reported for this compound CS(=O)(=O)c1ccc([C@@H](O)[C@@H](CO)NC(=O)C(Cl)Cl)cc1 : 4.46e-05

====

cond: in water, 308.15 K
assay_metric: solubility (mole fraction)
Give the figure by itself; no unit, no explanation.

solubility (mole fraction) reported for this compound CS(=O)(=O)c1ccc([C@@H](O)[C@@H](CO)NC(=O)C(Cl)Cl)cc1 : 0.000187

====

cond: in acetonitrile, 303.15 K
assay_metric: solubility (mole fraction)
Give the figure by itself; no unit, no explanation.

solubility (mole fraction) reported for this compound CS(=O)(=O)c1ccc([C@@H](O)[C@@H](CO)NC(=O)C(Cl)Cl)cc1 : 0.000502

====

cond: in acetonitrile, 283.15 K
assay_metric: solubility (mole fraction)
Give the figure by itself; no unit, no explanation.

solubility (mole fraction) reported for this compound CS(=O)(=O)c1ccc([C@@H](O)[C@@H](CO)NC(=O)C(Cl)Cl)cc1 : 0.000119

====

cond: in methanol, 288.15 K
assay_metric: solubility (mole fraction)
Give the figure by itself; no unit, no explanation.

solubility (mole fraction) reported for this molecule CS(=O)(=O)c1ccc([C@@H](O)[C@@H](CO)NC(=O)C(Cl)Cl)cc1 : 0.000518

====

cond: in acetone, 298.15 K
assay_metric: solubility (mole fraction)
Give the figure by itself; no unit, no explanation.

solubility (mole fraction) reported for this molecule CS(=O)(=O)c1ccc([C@@H](O)[C@@H](CO)NC(=O)C(Cl)Cl)cc1 : 0.00112

====

cond: in DMF, 313.15 K
assay_metric: solubility (mole fraction)
Give the figure by itself; no unit, no explanation.

solubility (mole fraction) reported for this compound CS(=O)(=O)c1ccc([C@@H](O)[C@@H](CO)NC(=O)C(Cl)Cl)cc1 : 0.0457

====

cond: in ethanol, 308.15 K
assay_metric: solubility (mole fraction)
Give the figure by itself; no unit, no explanation.

solubility (mole fraction) reported for this compound CS(=O)(=O)c1ccc([C@@H](O)[C@@H](CO)NC(=O)C(Cl)Cl)cc1 : 0.000837

====

cond: in ethyl acetate, 318.15 K
assay_metric: solubility (mole fraction)
Give the figure by itself; no unit, no explanation.

solubility (mole fraction) reported for this molecule CS(=O)(=O)c1ccc([C@@H](O)[C@@H](CO)NC(=O)C(Cl)Cl)cc1 : 0.000861

====

cond: in 2-butanone, 313.15 K
assay_metric: solubility (mole fraction)
Give the figure by itself; no unit, no explanation.

solubility (mole fraction) reported for this molecule CS(=O)(=O)c1ccc([C@@H](O)[C@@H](CO)NC(=O)C(Cl)Cl)cc1 : 0.00125

====

cond: in isopropanol, 308.15 K
assay_metric: solubility (mole fraction)

solubility (mole fraction) reported for this molecule CS(=O)(=O)c1ccc([C@@H](O)[C@@H](CO)NC(=O)C(Cl)Cl)cc1 : 0.000269

====

cond: in acetone, 293.15 K
assay_metric: solubility (mole fraction)

solubility (mole fraction) reported for this molecule CS(=O)(=O)c1ccc([C@@H](O)[C@@H](CO)NC(=O)C(Cl)Cl)cc1 : 0.00084

====

cond: in water, 288.15 K
assay_metric: solubility (mole fraction)

solubility (mole fraction) reported for this compound CS(=O)(=O)c1ccc([C@@H](O)[C@@H](CO)NC(=O)C(Cl)Cl)cc1 : 4.96e-05

====

cond: in isopropanol, 283.15 K
assay_metric: solubility (mole fraction)
Give the figure by itself; no unit, no explanation.

solubility (mole fraction) reported for this compound CS(=O)(=O)c1ccc([C@@H](O)[C@@H](CO)NC(=O)C(Cl)Cl)cc1 : 5.2e-05

====

cond: in ethanol, 283.15 K
assay_metric: solubility (mole fraction)
Give the figure by itself; no unit, no explanation.

solubility (mole fraction) reported for this compound CS(=O)(=O)c1ccc([C@@H](O)[C@@H](CO)NC(=O)C(Cl)Cl)cc1 : 0.000148

====

cond: in water, 303.15 K
assay_metric: solubility (mole fraction)
Give the figure by itself; no unit, no explanation.

solubility (mole fraction) reported for this compound CS(=O)(=O)c1ccc([C@@H](O)[C@@H](CO)NC(=O)C(Cl)Cl)cc1 : 0.000132

====

cond: in methanol, 298.15 K
assay_metric: solubility (mole fraction)
Give the figure by itself; no unit, no explanation.

solubility (mole fraction) reported for this compound CS(=O)(=O)c1ccc([C@@H](O)[C@@H](CO)NC(=O)C(Cl)Cl)cc1 : 0.000993

====

cond: in isopropanol, 288.15 K
assay_metric: solubility (mole fraction)
Give the figure by itself; no unit, no explanation.

solubility (mole fraction) reported for this molecule CS(=O)(=O)c1ccc([C@@H](O)[C@@H](CO)NC(=O)C(Cl)Cl)cc1 : 7.13e-05

====

cond: in 2-butanone, 308.15 K
assay_metric: solubility (mole fraction)
Give the figure by itself; no unit, no explanation.

solubility (mole fraction) reported for this molecule CS(=O)(=O)c1ccc([C@@H](O)[C@@H](CO)NC(=O)C(Cl)Cl)cc1 : 0.000952

====

cond: in n-butanol, 283.15 K
assay_metric: solubility (mole fraction)

solubility (mole fraction) reported for this molecule CS(=O)(=O)c1ccc([C@@H](O)[C@@H](CO)NC(=O)C(Cl)Cl)cc1 : 1.38e-05

====

cond: in DMF, 318.15 K
assay_metric: solubility (mole fraction)
Give the figure by itself; no unit, no explanation.

solubility (mole fraction) reported for this compound CS(=O)(=O)c1ccc([C@@H](O)[C@@H](CO)NC(=O)C(Cl)Cl)cc1 : 0.0553

====

cond: in n-butanol, 293.15 K
assay_metric: solubility (mole fraction)
Give the figure by itself; no unit, no explanation.

solubility (mole fraction) reported for this compound CS(=O)(=O)c1ccc([C@@H](O)[C@@H](CO)NC(=O)C(Cl)Cl)cc1 : 3.1e-05

====

cond: in ethyl acetate, 308.15 K
assay_metric: solubility (mole fraction)
Give the figure by itself; no unit, no explanation.

solubility (mole fraction) reported for this molecule CS(=O)(=O)c1ccc([C@@H](O)[C@@H](CO)NC(=O)C(Cl)Cl)cc1 : 0.000471
